The entries below are paired with their reported inhibition at 0.1 µM.
# systemTested: Solute carrier family 22 member 12 (Homo sapiens)
# Sequence (Q96S37 whole entry): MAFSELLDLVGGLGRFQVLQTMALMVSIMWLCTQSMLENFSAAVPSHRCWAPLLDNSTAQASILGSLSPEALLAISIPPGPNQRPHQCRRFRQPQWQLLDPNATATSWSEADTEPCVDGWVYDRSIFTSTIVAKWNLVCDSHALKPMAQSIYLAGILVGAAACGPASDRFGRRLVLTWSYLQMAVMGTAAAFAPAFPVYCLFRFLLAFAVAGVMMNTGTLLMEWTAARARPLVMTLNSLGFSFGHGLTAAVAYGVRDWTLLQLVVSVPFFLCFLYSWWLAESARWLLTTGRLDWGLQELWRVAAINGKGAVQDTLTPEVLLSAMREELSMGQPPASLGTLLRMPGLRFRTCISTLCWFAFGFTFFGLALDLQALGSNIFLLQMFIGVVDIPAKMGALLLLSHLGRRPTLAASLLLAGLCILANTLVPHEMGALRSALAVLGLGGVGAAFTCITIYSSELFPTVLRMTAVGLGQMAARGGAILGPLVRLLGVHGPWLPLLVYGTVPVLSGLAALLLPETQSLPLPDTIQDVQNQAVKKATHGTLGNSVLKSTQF
# reportedConditions: HEK293, human, 8 min, read-out: INH
# Description: Inhibition of URAT1 in human HEK293 cells assessed as inhibition of uric acid uptake at 100 nM incubated for 8 mins by Microbeta scintillation counting analysis
Write the value in % as a bare number.

Solved entries (count: 3):
CCc1oc2ccccc2c1C(=O)c1ccc(OCc2cccc(C(=O)O)c2)cc1; 1
CCc1oc2ccccc2c1C(=O)c1cc(Br)c(OCc2cccc(OCC(=O)O)c2)c(Br)c1; 3
CCc1oc2ccccc2c1C(=O)c1cc(Br)c(O)c(Br)c1; 12

Request: Quickly give me recorded inhibition at 0.1 µM for "CCc1oc2ccccc2c1C(=O)c1cc(Br)c(OCCCC(=O)O)c(Br)c1"
Response: 6

Request: Quickly give me recorded inhibition at 0.1 µM for "CCc1oc2ccccc2c1C(=O)c1cc(Br)c(OCc2ccc(C(=O)O)cc2)c(Br)c1"
Response: 1

----------
# systemTested: Solute carrier family 22 member 12 (Homo sapiens)
# reportedConditions: HEK293, human, 8 min, read-out: INH
# Description: Inhibition of URAT1 in human HEK293 cells assessed as inhibition of uric acid uptake at 1000 nM incubated for 8 mins by Microbeta scintillation counting analysis
The entries below are paired with their reported inhibition at 1 µM.
Write the value in % as a bare number.

Solved entries (count: 4):
CCc1oc2ccccc2c1C(=O)c1cc(Br)c(OCCCC(=O)O)c(Br)c1; 45
CCc1oc2ccccc2c1C(=O)c1cc(Br)c(OCc2cccc(OCC(=O)O)c2)c(Br)c1; 31
CCc1oc2ccccc2c1C(=O)c1cc(Br)c(O)c(Br)c1; 72
CCc1oc2ccccc2c1C(=O)c1cc(Br)c(OCc2ccc(C(=O)O)cc2)c(Br)c1; 23

// below: inhibition at 1 µM requested for another compound
Request: Report its inhibition at 1 µM with Solute carrier family 22 member 12 (Homo sapiens) as the test system: "CCc1oc2ccccc2c1C(=O)c1ccc(OCc2cccc(C(=O)O)c2)cc1"
Response: 12

----------
# systemTested: Bile acid receptor (Homo sapiens, UniProt Q96RI1)
# Sequence (Q96RI1 whole entry): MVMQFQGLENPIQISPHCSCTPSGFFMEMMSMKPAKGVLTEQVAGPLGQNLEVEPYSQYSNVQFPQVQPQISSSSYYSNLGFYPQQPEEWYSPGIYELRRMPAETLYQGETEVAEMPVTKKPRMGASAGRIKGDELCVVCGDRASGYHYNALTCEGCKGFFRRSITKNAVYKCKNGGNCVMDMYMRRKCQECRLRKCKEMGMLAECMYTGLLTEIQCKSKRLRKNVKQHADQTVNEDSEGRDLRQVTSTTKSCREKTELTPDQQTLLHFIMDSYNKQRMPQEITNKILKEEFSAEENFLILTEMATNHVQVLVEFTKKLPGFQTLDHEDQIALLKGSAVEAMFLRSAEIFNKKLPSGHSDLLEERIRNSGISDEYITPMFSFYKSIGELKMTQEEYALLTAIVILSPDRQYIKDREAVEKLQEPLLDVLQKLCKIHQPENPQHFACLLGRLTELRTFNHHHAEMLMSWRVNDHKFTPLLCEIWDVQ
# assayOverview: Agonist activity at FXR (unknown origin) expressed in human HepG2 cells co-transfected with human RXR incubated for 24 hrs by cell-based luciferase transactivation assay
The entries below are paired with their reported EC50.
Write the value in µM as a bare number.

CCc1oc2ccccc2c1C(=O)c1ccc(OCc2cccc(C(=O)O)c2)cc1; 15.6
CCc1oc2ccccc2c1C(=O)c1cc(Br)c(OCc2ccc(C(=O)O)cc2)c(Br)c1; 10.3

// below: EC50 requested for another compound
Request: Quickly give me recorded EC50 for "CCc1oc2ccccc2c1C(=O)c1cc(Br)c(OCc2cccc(OCC(=O)O)c2)c(Br)c1"
Response: 17.8

----------
# systemTested: Solute carrier family 22 member 12 (Homo sapiens)
# reportedConditions: HEK293, human, 8 min, read-out: INH
Label class 1 when inhibition at 0.3 µM is at or above 20%; anything below gets class 0.

Below, 4 compounds whose answers are already recorded.
CCc1oc2ccccc2c1C(=O)c1cc(Br)c(O)c(Br)c1; class 1
CCc1oc2ccccc2c1C(=O)c1cc(Br)c(OCCCC(=O)O)c(Br)c1; class 1
CCc1oc2ccccc2c1C(=O)c1cc(Br)c(OCc2cccc(OCC(=O)O)c2)c(Br)c1; class 0
CCc1oc2ccccc2c1C(=O)c1ccc(OCc2cccc(C(=O)O)c2)cc1; class 0

Now for another entry.
Request: Is the recorded value of inhibition at 0.3 µM equal to or greater than 20% for this compound? "CCc1oc2ccccc2c1C(=O)c1cc(Br)c(OCc2ccc(C(=O)O)cc2)c(Br)c1"
Response: class 0

Where do these numbers come from? They come from ChEMBL document CHEMBL5150039.
